Assay: Compound 1 plasma levels (pharmacokinetic samples, first cycle) in Phase I combination study
Format: in vivo, human
Conditions: human, patients, IV infusion, with carboplatin
assayEndpoint: half-life

Given the entry C/C(=C\c1csc(C)n1)[C@@H]1C[C@@H]2O[C@]2(C)CCC[C@H](C)[C@H](O)[C@@H](C)C(=O)C(C)(C)[C@@H](O)CC(=O)N1 (relative stereo) , report its measured half-life. ~30 h
